# ASSAY TARGET: T1, A1 protein (mouse, residues 1-152, P104K C113S, used as wild type) (mouse)
# T1 sequence (Q07440 1-152 with P104K C113S, looked up): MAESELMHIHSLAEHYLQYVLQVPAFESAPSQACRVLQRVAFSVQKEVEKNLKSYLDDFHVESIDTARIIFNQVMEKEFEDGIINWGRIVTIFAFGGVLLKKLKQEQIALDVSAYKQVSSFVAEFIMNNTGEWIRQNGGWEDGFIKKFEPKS
# PROTOCOL: stopped-flow fluorescence kinetics + other: fluorescence dissociation kinetics with competitor; Kd calculated as the ratio koff/kon of the kinetic rate constants; 25 °C; 50 mM sodium phosphate, 0.05% (v/v) Tween 20, pH 7.0
Where no end group is shown, it is not given here. The star is where a group is joined. TAMRA = 5-carboxytetramethylrhodamine, CN(C)c1ccc2c(-c3ccc(C(=O)*)cc3C(=O)[O-])c3ccc(=[N+](C)C)cc-3oc2c1
For each entry below, report its pKd value.
Numbers only, as −log10 of the molar value.

Here is how some binders turned out for pKd.
Sure, the documented pKd for {TAMRA}-RVEEEEWAREIGAQLRRAADDLNAQYEGRRQEEQH [PUMA R154G peptide (on the M144A wild type), TAMRA-labelled] is 10.04

Sure, the documented pKd for {TAMRA}-RVEEEEWAREIGAQLRRAADALNAQYERRRQEEQH [PUMA D147A peptide (on the M144A wild type), TAMRA-labelled] is 10.29

Sure, the documented pKd for {TAMRA}-RVEEEGWAREIGAQLRRAADDLNAQYERRRQEEQH [PUMA E132G peptide (on the M144A wild type), TAMRA-labelled] is 9.99

Sure, the documented pKd for {TAMRA}-SESQEEIIHNAARHLAQIGDEADHNIQPTLVRQLA (peptide, UniProt P70444 76-110, looked up, BID, mouse, residues 76-110, UniProt P70444; source: synthetic peptide (Biomatik)) [BID I86A-M97A peptide, TAMRA-labelled] is 7.30

Sure, the documented pKd for {TAMRA}-SESQEEIIHNIARHLAQAGDEMDHNIQPTLVRQLA (peptide, UniProt P70444 76-110, looked up, BID, mouse, residues 76-110, UniProt P70444; source: synthetic peptide (Biomatik)) [BID I93A peptide, TAMRA-labelled] is 9.36

Each binder below has a recorded value; state its pKd.
1. {TAMRA}-RVEEEEWAREIGGQLRRAADDLNAQYERRRQEEQH [PUMA A139G peptide (on the M144A wild type), TAMRA-labelled]
2. {TAMRA}-SESQEEIAHNIARHLAQIGDEMDHNIQPTLVRQLA (peptide, UniProt P70444 76-110, looked up, BID, mouse, residues 76-110, UniProt P70444; source: synthetic peptide (Biomatik)) [BID I83A peptide, TAMRA-labelled]
3. {TAMRA}-RVEEEEWAREAGAQLRRAADDLNAQYERRRQEEQH [PUMA I137A peptide (on the M144A wild type), TAMRA-labelled]
4. {TAMRA}-SESQEEIIHNIARHLAQIGDGMDHNIQPTLVRQLA (peptide, UniProt P70444 76-110, looked up, BID, mouse, residues 76-110, UniProt P70444; source: synthetic peptide (Biomatik)) [BID E96G peptide, TAMRA-labelled]

**A:**
9.48
9.54
8.43
10.01
